target: IκBα ubiquitinating enzyme (SCF complex: ROC1, Cullin1, Skp1, His-TrCP1; with E1, UbcH5b) (Homo sapiens, UniProt P62877+P63208+Q13616+Q9Y297); construct: His (polyhistidine); made in house; host or cells: insect cells (baculovirus) for the SCF complex and His-E1; E. coli for His-UBCH5b; test: Measurement of ubiquitinating enzyme activity (IκBα ubiquitination, time-resolved fluorescence with Eu(K)-labeled ubiquitin and XL665-labeled anti-GST antibody); assay type: biochemical; conditions: enzyme activity inhibition test, method (1), Table 5; read-out: EVALUATION
Sequence (Q9Y297 whole entry): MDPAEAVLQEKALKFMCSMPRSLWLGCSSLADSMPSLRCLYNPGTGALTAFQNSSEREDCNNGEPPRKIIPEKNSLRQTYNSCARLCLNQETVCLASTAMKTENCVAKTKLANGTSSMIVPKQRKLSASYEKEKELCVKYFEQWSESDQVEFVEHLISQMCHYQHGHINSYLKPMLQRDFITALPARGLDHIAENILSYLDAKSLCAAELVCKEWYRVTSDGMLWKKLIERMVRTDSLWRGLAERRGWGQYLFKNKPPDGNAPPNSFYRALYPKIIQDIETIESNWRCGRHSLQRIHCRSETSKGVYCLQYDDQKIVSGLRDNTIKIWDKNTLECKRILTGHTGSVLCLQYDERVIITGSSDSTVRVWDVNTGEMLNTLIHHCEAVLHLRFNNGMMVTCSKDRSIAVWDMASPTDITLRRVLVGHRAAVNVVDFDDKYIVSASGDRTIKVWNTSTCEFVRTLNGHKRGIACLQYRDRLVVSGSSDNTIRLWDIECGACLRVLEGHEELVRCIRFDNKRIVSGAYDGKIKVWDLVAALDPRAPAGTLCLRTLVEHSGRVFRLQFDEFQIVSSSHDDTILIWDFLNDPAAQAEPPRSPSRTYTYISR
Sequence (Q13616 whole entry): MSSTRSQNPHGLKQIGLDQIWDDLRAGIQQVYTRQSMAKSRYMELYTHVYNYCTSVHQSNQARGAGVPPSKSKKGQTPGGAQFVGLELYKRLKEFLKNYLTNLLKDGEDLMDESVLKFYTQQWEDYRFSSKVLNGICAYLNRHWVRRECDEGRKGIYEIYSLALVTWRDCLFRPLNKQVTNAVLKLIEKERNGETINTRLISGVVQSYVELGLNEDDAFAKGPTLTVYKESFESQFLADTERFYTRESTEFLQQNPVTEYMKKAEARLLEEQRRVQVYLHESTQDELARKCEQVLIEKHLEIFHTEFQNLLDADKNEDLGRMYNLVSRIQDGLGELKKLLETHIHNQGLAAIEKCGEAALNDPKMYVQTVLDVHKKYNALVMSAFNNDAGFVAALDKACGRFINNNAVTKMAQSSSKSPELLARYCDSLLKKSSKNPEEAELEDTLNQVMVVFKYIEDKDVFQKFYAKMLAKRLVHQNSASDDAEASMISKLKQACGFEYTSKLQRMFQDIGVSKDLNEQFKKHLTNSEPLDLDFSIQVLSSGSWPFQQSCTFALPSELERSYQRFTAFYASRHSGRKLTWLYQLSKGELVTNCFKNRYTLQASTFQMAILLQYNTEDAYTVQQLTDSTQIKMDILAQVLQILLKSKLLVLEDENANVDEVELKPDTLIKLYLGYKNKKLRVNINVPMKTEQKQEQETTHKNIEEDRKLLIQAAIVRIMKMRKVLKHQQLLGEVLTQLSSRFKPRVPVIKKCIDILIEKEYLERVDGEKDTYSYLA
Sequence (P63208 whole entry): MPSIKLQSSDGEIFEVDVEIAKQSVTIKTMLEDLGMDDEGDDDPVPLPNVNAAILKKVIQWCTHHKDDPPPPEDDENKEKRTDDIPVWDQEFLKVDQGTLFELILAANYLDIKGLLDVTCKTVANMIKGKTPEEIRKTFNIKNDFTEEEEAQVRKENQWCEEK
Sequence (P62877 whole entry): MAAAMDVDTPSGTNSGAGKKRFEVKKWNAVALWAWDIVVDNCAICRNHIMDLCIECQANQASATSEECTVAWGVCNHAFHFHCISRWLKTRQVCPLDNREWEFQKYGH
pIC50: −log10 of the molar value.
# pIC50 per entry

COc1ccc(C2=NN(c3ccc(C(=O)O)cc3)C(=O)/C2=C\c2ccc(N3CCCC3)cc2)cc1OC [Compound 281] :: > 5.00
CC1=NN(c2cccc(C(=O)O)c2)C(=O)/C1=C\c1ccc(S(=O)(=O)O)o1 [Compound 520] :: 4.70 to 5.00
COc1cccc(-c2ccc(/C=C3\C(=O)N(c4ccc(C(=O)O)cc4)N=C3C)o2)c1 [Compound 501] :: > 5.00
CC1=NN(c2ccc(C(=O)NCc3ccc4c(c3)OCO4)cc2)C(=O)/C1=C\c1ccc2c(c1)OCCO2 [Compound 397] :: 4.70 to 5.00
CC1=NN(c2ccccc2)C(=O)/C1=C\c1ccc(OCC(=O)Nc2ccccc2)cc1 [Compound 205] :: > 4.40

Look at this compound and give its reported pIC50. O=C(O)c1ccc(N2N=C(c3ccccn3)/C(=C/c3ccc(N4CCC(O)CC4)s3)C2=O)cc1 [Compound 293]
> 4.40

Queued: CC1=NN(Cc2cccc(O)c2)C(=O)/C1=C\c1ccc(-c2ccccc2F)o1 [Compound 185]
> 5.00

Now the same for COCC1=NN(c2ccccc2)C(=O)/C1=C\c1ccc(CO)o1 [Compound 7]
> 4.40
